B1: library; numbered along this chain (parent)
chain: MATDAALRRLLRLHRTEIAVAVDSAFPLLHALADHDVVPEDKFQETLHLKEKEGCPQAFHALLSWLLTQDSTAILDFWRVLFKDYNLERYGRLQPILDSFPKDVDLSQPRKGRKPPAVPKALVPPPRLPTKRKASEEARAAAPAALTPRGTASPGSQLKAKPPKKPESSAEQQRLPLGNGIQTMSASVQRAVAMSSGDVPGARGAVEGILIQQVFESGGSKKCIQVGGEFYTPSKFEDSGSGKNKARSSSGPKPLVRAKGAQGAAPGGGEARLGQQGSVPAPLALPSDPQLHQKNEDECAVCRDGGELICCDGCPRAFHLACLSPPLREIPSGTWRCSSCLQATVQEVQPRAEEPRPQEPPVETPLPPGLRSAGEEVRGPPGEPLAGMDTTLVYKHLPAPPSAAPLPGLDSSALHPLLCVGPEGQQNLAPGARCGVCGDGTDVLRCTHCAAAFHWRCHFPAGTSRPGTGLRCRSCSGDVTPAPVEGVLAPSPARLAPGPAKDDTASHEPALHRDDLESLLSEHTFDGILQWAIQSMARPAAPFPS

variants of: B1; assay: AIRE transcriptional activation functional score (insulin promoter-GFP; nonsense median 0, synonymous median 1) (normalised score); higher = higher AIRE activity (more reporter activation); conditions: with insulin promoter-GFP reporter in HEK293
Consider the following variants and their measured AIRE transcriptional activation functional score readings.
No unit in the answer, please; the number alone is enough.

Observe how each entry below is paired with its result.
R471Q
0.5
S169G
1.42
V487C
0.67

Entry E359A needs its AIRE transcriptional activation functional score filled in; supply it.
0.785

Entry A271V needs its AIRE transcriptional activation functional score filled in; supply it.
1.09

Entry Q290L needs its AIRE transcriptional activation functional score filled in; supply it.
0.646

Entry P56I needs its AIRE transcriptional activation functional score filled in; supply it.
0.82

Entry T232V needs its AIRE transcriptional activation functional score filled in; supply it.
1.07

Entry P233H needs its AIRE transcriptional activation functional score filled in; supply it.
1.29

Entry L67V needs its AIRE transcriptional activation functional score filled in; supply it.
0.638
